- System Tested: CLC-ec1 (Escherichia coli, UniProt P37019, E148A)
- Sequence (P37019 whole entry E148A): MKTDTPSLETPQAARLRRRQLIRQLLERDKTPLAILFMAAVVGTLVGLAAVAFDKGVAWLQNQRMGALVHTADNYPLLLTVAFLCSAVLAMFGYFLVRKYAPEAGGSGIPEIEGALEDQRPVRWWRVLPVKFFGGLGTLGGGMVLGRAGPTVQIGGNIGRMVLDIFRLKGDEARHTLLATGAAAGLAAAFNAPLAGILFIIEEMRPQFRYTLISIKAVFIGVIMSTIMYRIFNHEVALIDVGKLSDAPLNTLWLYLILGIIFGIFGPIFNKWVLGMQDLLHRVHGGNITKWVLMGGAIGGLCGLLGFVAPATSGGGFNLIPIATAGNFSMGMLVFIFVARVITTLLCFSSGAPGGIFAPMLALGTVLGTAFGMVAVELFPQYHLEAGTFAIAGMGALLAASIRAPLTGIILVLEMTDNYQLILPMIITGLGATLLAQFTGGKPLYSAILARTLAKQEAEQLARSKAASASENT
- Test: biochemical

- Smiles Text: "F"
  Kd (µM): 180

###

- System Tested: CLC-ec1 (Escherichia coli, UniProt P37019)
- Sequence (P37019 whole entry): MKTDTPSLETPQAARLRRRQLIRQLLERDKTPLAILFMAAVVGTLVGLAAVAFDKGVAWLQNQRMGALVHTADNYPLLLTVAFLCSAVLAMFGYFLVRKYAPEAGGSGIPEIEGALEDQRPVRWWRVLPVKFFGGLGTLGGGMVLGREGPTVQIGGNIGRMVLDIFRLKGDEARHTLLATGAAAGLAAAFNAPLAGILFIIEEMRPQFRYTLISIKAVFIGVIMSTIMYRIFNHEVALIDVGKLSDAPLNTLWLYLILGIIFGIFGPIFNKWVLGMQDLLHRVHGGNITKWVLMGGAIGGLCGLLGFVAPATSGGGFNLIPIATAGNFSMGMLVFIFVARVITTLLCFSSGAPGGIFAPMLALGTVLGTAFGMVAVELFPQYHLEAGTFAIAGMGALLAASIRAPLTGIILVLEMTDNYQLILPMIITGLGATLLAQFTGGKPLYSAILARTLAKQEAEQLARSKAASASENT
- Test: biochemical

- Compound: "Cl [Cl^−]"
  Kd, µM: 600
- Compound: "F [F^−]"
  Kd, µM: 1000
